Values compiled from ChEMBL document CHEMBL5537157.

Could you please report measured IC50 at 48 h for the items listed next?
# assay_explanation: Cytotoxicity against human BEAS-2B cells assessed as inhibition of cell viability incubated for 48 hrs by MTT assay
# Type: toxicity, cell-based
Give bare numbers, in µM.

COc1cccc2c1C(=O)c1c(O)c3c(c(O)c1C2=O)C[C@@](O)(C(=O)CO)C[C@@H]3O[C@H]1C[C@H](N)[C@H](O)[C@H](C)O1 [DOXORUBICIN] | 42

I'm hoping you can list IC50 at 48 h for every molecule here, please.
1. CC(C)[C@]12O[C@H]1[C@@H]1O[C@]13[C@]1(O[C@H]1C[C@H]1C4=C(CC[C@@]13C)C(=O)OC4)[C@]2(O)COC(=O)CCCCCCCC[P+](c1ccccc1)(c1ccccc1)c1ccccc1
2. CC(C)[C@]12O[C@H]1[C@@H]1O[C@]13[C@]1(O[C@H]1C[C@H]1C4=C(CC[C@@]13C)C(=O)OC4)[C@@H]2OC(=O)CCCCCCCCC[n+]1ccc(/C=C/c2c[nH]c3ccccc23)cc1
3. CC(C)[C@]12O[C@H]1[C@@H]1O[C@]13[C@]1(O[C@H]1C[C@H]1C4=C(CC[C@@]13C)C(=O)OC4)[C@]2(O)COC(=O)CCCCCCCCC[P+](c1ccccc1)(c1ccccc1)c1ccccc1
4. CC(C)[C@]12O[C@H]1[C@@H]1O[C@]13[C@]1(O[C@H]1C[C@H]1C4=C(CC[C@@]13C)C(=O)OC4)[C@@H]2OC(=O)CCCCCC[n+]1ccc(/C=C/c2c[nH]c3ccccc23)cc1

Result block:
23.4
11.9
23.6
27.9

----------
# System: MCF7
# assay_explanation: Cytotoxicity against human MCF7 cells assessed as inhibition of cell viability incubated for 48 hrs by MTT assay
# Assay type: functional, cell-based
# experimental_context: MCF7, 48 h
Please provide measured pIC50 for the entries that follow.
Numbers only, as −log10 of the molar value.

Some solved cases for reference:
CC(C)[C@]12O[C@H]1[C@@H]1O[C@]13[C@]1(O[C@H]1C[C@H]1C4=C(CC[C@@]13C)C(=O)OC4)[C@@H]2OC(=O)CCCCCCC[n+]1ccc(/C=C/c2c[nH]c3ccccc23)cc1.[Br-] | 5.15
CC(C)[C@]12O[C@H]1[C@@H]1O[C@]13[C@]1(O[C@H]1C[C@H]1C4=C(CC[C@@]13C)C(=O)OC4)[C@@H]2OC(=O)CCCCC[n+]1ccc(/C=C/c2c[nH]c3ccccc23)cc1 | 4.78
CC(C)[C@]12O[C@H]1[C@@H]1O[C@]13[C@]1(O[C@H]1C[C@H]1C4=C(CC[C@@]13C)C(=O)OC4)[C@]2(O)COC(=O)CCCCCCCCC[P+](c1ccccc1)(c1ccccc1)c1ccccc1 | 4.52

We next turn to a different compound, shown below.
Measured pIC50 of `CC(C)[C@]12O[C@H]1[C@@H]1O[C@]13[C@]1(O[C@H]1C[C@H]1C4=C(CC[C@@]13C)C(=O)OC4)[C@@H]2OC(=O)CCCC[n+]1ccc(/C=C/c2c[nH]c3ccccc23)cc1` : 4.33

----------
# System: MCF7
# assay_explanation: Cytotoxicity against human MCF7 cells assessed as inhibition of cell viability incubated for 48 hrs by MTT assay
# Format: functional, cell-based
# experimental_context: MCF7, 48 h
readout: pIC50
Give bare numbers, as −log10 of the molar value.

CC(C)[C@]12O[C@H]1[C@@H]1O[C@]13[C@]1(O[C@H]1C[C@H]1C4=C(CC[C@@]13C)C(=O)OC4)[C@@H]2OC(=O)CCCCCCCCCC[n+]1ccc(/C=C/c2c[nH]c3ccccc23)cc1 | 5.28
CC(C)[C@]12O[C@H]1[C@@H]1O[C@]13[C@]1(O[C@H]1C[C@H]1C4=C(CC[C@@]13C)C(=O)OC4)[C@@H]2OC(=O)CCCCCCCCC[n+]1ccc(/C=C/c2c[nH]c3ccccc23)cc1 | 5.20

Here is the next item to consider.
Data point: `CC(C)[C@]12O[C@H]1[C@@H]1O[C@]13[C@]1(O[C@H]1C[C@H]1C4=C(CC[C@@]13C)C(=O)OC4)[C@]2(O)COC(=O)CCCCCCCC[P+](c1ccccc1)(c1ccccc1)c1ccccc1` ; pIC50 = 4.68
